biological target: GABA-A receptor; anion channel; experiment: Inhibition of [3H]flunitrazepam binding to GABA-A benzodiazepine receptor of rat cerebral cortex; format: tissue-based
pIC50: −log10 of the molar value.
Outcome label depends on pIC50 relative to 7: at/above gives 1, below gives 0.

INSERT INTO measurements (molsmiles, classassignment) VALUES
  ('C=CCOC(=O)c1c(C)nc2c(cnn2CCC2CC2)c1N', 1),
  ('C=CCNC(=O)c1cnc2c(cnn2CCCCC)c1N', 1),
  ('CCCCCn1ncc2c(N)c(C(=O)NOCC)cnc21', 0),
  ('C=CCCn1ncc2c(N)c(C(=O)OCC=C)c(C)nc21', 1),
  ('CCCCn1ncc2c(N)c(C(=O)OCC)c(C)nc21', 1),
  ('C=CCOC(=O)c1c(C)nc2c(cnn2CCCCC)c1N', 1);

Data origin: ChEMBL document CHEMBL1124612
